- target_under_test: UniProt:Q96FL8
- Sequence (Q96FL8 1-570): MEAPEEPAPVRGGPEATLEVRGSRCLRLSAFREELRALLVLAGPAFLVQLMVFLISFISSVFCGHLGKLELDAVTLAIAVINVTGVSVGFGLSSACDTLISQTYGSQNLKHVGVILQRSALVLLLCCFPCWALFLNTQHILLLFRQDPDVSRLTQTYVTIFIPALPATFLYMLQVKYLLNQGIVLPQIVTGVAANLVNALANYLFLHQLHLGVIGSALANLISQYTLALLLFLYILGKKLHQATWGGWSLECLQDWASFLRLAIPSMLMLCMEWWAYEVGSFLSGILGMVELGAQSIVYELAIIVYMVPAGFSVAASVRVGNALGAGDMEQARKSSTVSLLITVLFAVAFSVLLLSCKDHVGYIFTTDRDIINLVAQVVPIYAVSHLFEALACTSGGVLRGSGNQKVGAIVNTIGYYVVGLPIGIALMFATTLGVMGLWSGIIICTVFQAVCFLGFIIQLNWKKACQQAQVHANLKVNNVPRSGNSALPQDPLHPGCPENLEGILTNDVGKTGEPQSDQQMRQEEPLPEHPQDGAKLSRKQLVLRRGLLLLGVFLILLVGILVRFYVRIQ
- measurement_description: Uptake ratio in MATE1-overexpressing HEK293 cells vs empty vector (2.5 μM, 1 min, HPLC-MS/MS)
- Type: cell-based

[
  {
    "compound": "NCc1ccc(O)cc1",
    "MATE1 ratio": 1.48
  },
  {
    "compound": "COC(=O)[C@@H]1[C@H]2CC[C@@H](C[C@@H]1O)N2C",
    "MATE1 ratio": 1.54
  },
  {
    "compound": "C[N+]1(C)CCN(c2ccccc2)CC1",
    "MATE1 ratio": 29.06
  },
  {
    "compound": "CNCCCC1(c2ccc(F)cc2)OCc2cc(C#N)ccc21 (stereo not drawn)",
    "MATE1 ratio": 1.09
  },
  {
    "compound": "N[C@@H](CCC(=O)O)C(=O)O",
    "MATE1 ratio": 1.17
  },
  {
    "compound": "C[n+]1ccc(-c2ccccc2)cc1",
    "MATE1 ratio": 23.35
  },
  {
    "compound": "NCCc1cc(O)c(O)cc1O [6-Hydroxydopamine]",
    "MATE1 ratio": 1.05
  },
  {
    "compound": "NCCCC[C@H](N)C(=O)O",
    "MATE1 ratio": 1.13
  }
]

###

- target_under_test: MATE2K (Homo sapiens)
- Sequence (Q86VL8 1-566 isoform Q86VL8-3): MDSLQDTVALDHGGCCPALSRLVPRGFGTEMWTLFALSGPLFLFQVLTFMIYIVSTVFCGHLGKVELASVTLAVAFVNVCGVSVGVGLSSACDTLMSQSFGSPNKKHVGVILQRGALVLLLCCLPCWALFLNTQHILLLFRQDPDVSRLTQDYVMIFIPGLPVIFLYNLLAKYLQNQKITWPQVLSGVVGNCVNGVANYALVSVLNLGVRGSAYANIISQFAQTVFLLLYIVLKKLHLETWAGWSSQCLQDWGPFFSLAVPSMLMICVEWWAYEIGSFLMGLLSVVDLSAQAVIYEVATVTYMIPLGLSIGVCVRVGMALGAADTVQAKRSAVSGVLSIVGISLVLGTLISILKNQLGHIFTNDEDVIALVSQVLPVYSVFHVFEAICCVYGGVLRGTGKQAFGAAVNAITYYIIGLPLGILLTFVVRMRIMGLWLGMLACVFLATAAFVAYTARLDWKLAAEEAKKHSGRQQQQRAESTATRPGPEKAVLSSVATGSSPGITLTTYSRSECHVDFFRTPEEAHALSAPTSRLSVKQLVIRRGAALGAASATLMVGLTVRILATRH
- measurement_description: Uptake ratio in MATE2K-overexpressing HEK293 cells vs empty vector (2.5 μM, 1 min, HPLC-MS/MS)
- Type: cell-based
- condition_label: fold uptake over empty vector, 2.5 μM, 1 min
Cut-off 2 on MATE2K ratio, inclusive. At or above means rule met; below means rule not met.

[
  {
    "molecule": "CN(C)CCC=C1c2ccccc2COc2ccccc21 [Doxepin (Z), Doxepin]",
    "target_under_test": "MATE2K (Homo sapiens)",
    "label_value": "rule not met"
  },
  {
    "molecule": "Oc1ccc(C2CNCCc3c2cc(O)c(O)c3Cl)cc1 (stereo not drawn)",
    "target_under_test": "MATE2K (Homo sapiens)",
    "label_value": "rule met"
  },
  {
    "molecule": "CC1(C)OC[C@@H](COC(=O)CCc2ccc(OC[C@@H](O)CNCCNC(=O)N3CCOCC3)cc2)O1",
    "target_under_test": "MATE2K (Homo sapiens)",
    "label_value": "rule met"
  },
  {
    "molecule": "N=C(N)N1Cc2ccccc2C(O)C1 (stereo not drawn) [4-Hydroxydebrisoquine]",
    "target_under_test": "MATE2K (Homo sapiens)",
    "label_value": "rule met"
  },
  {
    "molecule": "O=C(O)c1cccnc1",
    "target_under_test": "MATE2K (Homo sapiens)",
    "label_value": "rule not met"
  },
  {
    "molecule": "C=CCN1CC[C@]23c4c5ccc(O)c4O[C@H]2C(=O)CC[C@@]3(O)[C@H]1C5",
    "target_under_test": "MATE2K (Homo sapiens)",
    "label_value": "rule not met"
  },
  {
    "molecule": "NNCCc1ccccc1",
    "target_under_test": "MATE2K (Homo sapiens)",
    "label_value": "rule not met"
  },
  {
    "molecule": "O=C(O[C@H]1C[N+]2(CCCOc3ccccc3)CCC1CC2)C(O)(c1cccs1)c1cccs1 [Aclidinium (S), Aclidinium]",
    "target_under_test": "MATE2K (Homo sapiens)",
    "label_value": "rule not met"
  },
  {
    "molecule": "CC(C)N(CCC(C(N)=O)(c1ccccc1)c1ccccn1)C(C)C (stereo not drawn) [Disopyramide]",
    "target_under_test": "MATE2K (Homo sapiens)",
    "label_value": "rule not met"
  },
  {
    "molecule": "COc1ccc2c(c1)N(C[C@H](C)CN(C)C)c1ccccc1S2",
    "target_under_test": "MATE2K (Homo sapiens)",
    "label_value": "rule not met"
  },
  {
    "molecule": "CCc1nc(N)nc(N)c1-c1ccc(Cl)cc1",
    "target_under_test": "MATE2K (Homo sapiens)",
    "label_value": "rule not met"
  },
  {
    "molecule": "CC(=O)Nc1ccc(O)cc1",
    "target_under_test": "MATE2K (Homo sapiens)",
    "label_value": "rule not met"
  },
  {
    "molecule": "COc1nc(C)nc(Cl)c1N=C1NCCN1",
    "target_under_test": "MATE2K (Homo sapiens)",
    "label_value": "rule not met"
  },
  {
    "molecule": "NCCC(=O)N[C@@H](Cc1cnc[nH]1)C(=O)O",
    "target_under_test": "MATE2K (Homo sapiens)",
    "label_value": "rule not met"
  },
  {
    "molecule": "CC[C@@H](CO)NCCN[C@@H](CC)CO",
    "target_under_test": "MATE2K (Homo sapiens)",
    "label_value": "rule met"
  },
  {
    "molecule": "NC(N)=NCc1cccc(I)c1",
    "target_under_test": "MATE2K (Homo sapiens)",
    "label_value": "rule met"
  },
  {
    "molecule": "Nc1ncn([C@H]2C[C@H](O)[C@@H](CO)O2)c(=O)n1",
    "target_under_test": "MATE2K (Homo sapiens)",
    "label_value": "rule not met"
  },
  {
    "molecule": "COc1ccc(OC)c(C(O)CNC(=O)CN)c1 (stereo not drawn)",
    "target_under_test": "MATE2K (Homo sapiens)",
    "label_value": "rule not met"
  }
]
